system: HCV 1a-H77 subgenomic replicon; test: microbe, parasite or virus in culture; assay type: cell-based, HCV genotype 1a; conditions: Hepatitis C virus, stable replicon, strain 1a H77, 5% FBS; read-out: 1a H77 5% FBS EC50

- compound: "CC(C)CCN(c1cc2oc(-c3ccc(F)cc3)c(-c3nc(C(F)(F)F)c[nH]3)c2cc1C1CC1)S(C)(=O)=O"
  unit.spec: "nM"
  EC50: 7620
- compound: "CS(=O)(=O)N(CCc1csc(N)n1)c1cc2oc(-c3ccc(F)cc3)c(-c3ncc[nH]3)c2cc1C1CC1"
  unit.spec: "nM"
  EC50: 108
- compound: "CS(=O)(=O)N(CC1CCNC1)c1cc2oc(-c3ccc(F)cc3)c(-c3ncc[nH]3)c2cc1C1CC1 (stereo not shown)"
  unit.spec: "nM"
  EC50: 1000
- compound: "COCCCN(c1cc2oc(-c3ccc(F)cc3)c(-c3ncc[nH]3)c2cc1C1CC1)S(C)(=O)=O"
  unit.spec: "nM"
  EC50: 13.9
- compound: "CS(=O)(=O)N(Cc1cnc(-c2c[nH]c(=O)[nH]c2=O)s1)c1ccc2c(-c3ncc[nH]3)c(-c3ccccc3)oc2c1"
  unit.spec: "nM"
  EC50: 1000
- compound: "Cc1cnc(-c2c(-c3ccc(F)cc3)oc3cc(N(CCC(C)C)S(C)(=O)=O)c(C4CC4)cc23)[nH]1"
  unit.spec: "nM"
  EC50: 67.4
- compound: "CS(=O)(=O)N(CCCC#N)c1cc2oc(-c3ccc(F)cc3)c(C3=NOCCN3)c2cc1C1CC1"
  unit.spec: "nM"
  EC50: 6.32

* * *

The entries below come with measured C316Y/1a Fold Resistance values attached.
test system: HCV NS5B polymerase 1a-H77-C316Y; assay: biochemical; design: species or system HCV genotype 1a; settings: ratio of enzyme IC50s, 1a H77-C316Y / 1a H77

- compound: "CC(=O)CCCCN(c1cc2oc(-c3ccc(F)cc3)c(-c3ncc[nH]3)c2cc1C1CC1)S(C)(=O)=O"
  C316Y/1a Fold Resistance / fold: 10
- compound: "CS(=O)(=O)CCCN(c1cc2oc(-c3ccc(F)cc3)c(-c3ncc[nH]3)c2cc1C1CC1)S(C)(=O)=O"
  C316Y/1a Fold Resistance / fold: 9
- compound: "C[S+]([O-])c1ccc(-c2ncc(CN(c3ccc4c(-c5ncc[nH]5)c(-c5ccccc5)oc4c3)S(C)(=O)=O)s2)cc1 (stereo not shown)"
  C316Y/1a Fold Resistance / fold: 5
- compound: "CS(=O)(=O)N(CCCc1noc(=O)[nH]1)c1cc2oc(-c3ccc(F)cc3)c(-c3ncc[nH]3)c2cc1C1CC1"
  C316Y/1a Fold Resistance / fold: 7
- compound: "CS(=O)(=O)N(CC1CCCC1)c1cc2oc(-c3ccc(F)cc3)c(-c3ncc[nH]3)c2cc1C1CC1"
  C316Y/1a Fold Resistance / fold: 30
- compound: "CC[S+]([O-])CCCN(c1cc2oc(-c3ccc(F)cc3)c(C3=NOCCN3)c2cc1C1CC1)S(C)(=O)=O (stereo not shown)"
  C316Y/1a Fold Resistance / fold: 13
- compound: "COC(=O)CCCN(c1cc2oc(-c3ccc(F)cc3)c(-c3ncc[nH]3)c2cc1C1CC1)S(C)(=O)=O"
  C316Y/1a Fold Resistance / fold: 17
